Where these numbers come from: ChEMBL document CHEMBL5131537

Experiment: Cmax in Sprague-Dawley rat at 1 mg/kg, iv measured after 0.083 to 24 hrs by LC-MS analysis
Format: ADME, organism-based
Design: time upper 24 hrs, dose 1 mg/kg, time lower 0.083 hrs, route iv
Details: in vivo
readout_label: Cmax (ng/mL)
Give a bare numeral; the unit ng/mL is implied.

// COc1cc(-c2ccc(C#N)cc2)ccc1Oc1cc(N)nc(Nc2ccc(C#N)cc2)n1 : Cmax value = 329

---

Tested on: Human immunodeficiency virus 1
Assay: microbe, parasite or virus in culture
Conditions: Human immunodeficiency virus 1, IIIB, MT4
Description: Antiviral activity against wild type HIV-1 IIIB infected in human MT4 cells assessed as protection against virus-induced cytopathic effect by MTT assay
Doc: threshold 7 nM (exclusive). Items with EC50 beneath it return true; others return false.

| chemical_structure | group |
| --- | --- |
| Cc1ccc(-c2cc(C)c(Oc3cc(N)nc(Nc4ccc(C#N)cc4)n3)c(C)c2)cc1 | false |
| Cc1cc(-c2cccc(C#N)c2)ccc1Oc1cc(N)nc(Nc2ccc(C#N)cc2)n1 | true |
| Cc1cc(-c2ccc(C#N)c(C#N)c2)ccc1Oc1cc(N)nc(Nc2ccc(C#N)cc2)n1 | false |
| Cc1cc(-c2ccc(C#N)c(F)c2)cc(C)c1Oc1cc(N)nc(Nc2ccc(C#N)cc2)n1 | true |

Kindly review the next compound as well.
[in] Given the entry Cc1cccc(-c2cc(C)c(Oc3cc(N)nc(Nc4ccc(C#N)cc4)n3)c(C)c2)c1 , would its reported EC50 be below 7 nM?
[out] false

---

Assay: Cytotoxicity against human MT4 cells assessed as reduction in cell viability by MTT assay
Format: toxicity, cell-based
Doc: threshold 20 µM (exclusive). Items with CC50 beneath it return 1; others return 0.

| chemical_structure | group |
| --- | --- |
| COc1ccc(-c2cc(C)c(Oc3cc(N)nc(Nc4ccc(C#N)cc4)n3)c(C)c2)cc1 | 1 |
| COc1cc2cc(C#N)ccc2c(OC)c1Oc1cc(N)nc(Nc2ccc(C#N)cc2)n1 | 1 |
| Cc1cc(-c2cccc(F)c2)cc(C)c1Oc1cc(N)nc(Nc2ccc(C#N)cc2)n1 | 0 |

[in] Given the entry Cc1cc(-c2ccc(C#N)c(F)c2)cc(C)c1Oc1cc(N)nc(Nc2ccc(C#N)cc2)n1 , would its reported CC50 be below 20 µM?
[out] 1

[in] Given the entry Cc1cc(-c2ccc(C#N)cc2)ccc1Oc1cc(N)nc(Nc2ccc(C#N)cc2)n1 , would its reported CC50 be below 20 µM?
[out] 1

---

Below, each entry is listed alongside its reported EC50.
Tested on: Human immunodeficiency virus 1
Assay: Antiviral activity against HIV-1 IIIB harboring reverse transcriptase K103N mutant infected in human MT4 cells by MTT assay
Format: functional, organism-based
Settings: Human immunodeficiency virus 1, IIIB

Recorded results for 4 compounds are shown here.
| chemical_structure | EC50 |
| --- | --- |
| Cc1cc(-c2cccc(C#N)c2)cc(C)c1Oc1cc(N)nc(Nc2ccc(C#N)cc2)n1 | 8 nM |
| Cc1cc(-c2ccc(C#N)cc2)ccc1Oc1cc(N)nc(Nc2ccc(C#N)cc2)n1 | 3 nM |
| Cc1cc(-c2ccc(C#N)cc2)cc(C)c1Oc1cc(N)nc(Nc2ccc(C#N)cc2)n1 | 4 nM |
| COc1cc(-c2ccc(C#N)cc2)ccc1Oc1cc(N)nc(Nc2ccc(C#N)cc2)n1 | 4 nM |

// next entry
// Cc1ccnc2c1NC(=O)c1cccnc1N2C1CC1 : EC50 value = 5840 nM

---

Test: in vitro
Conditions: human, MT4 cells
Description: Selectivity index, ratio of CC50 for cytotoxicity against human MT4 cells to EC50 for antiviral activity against wild type HIV-1 IIIB infected in human MT4 cells
Below, each entry is listed alongside its reported selectivity ratio.
Lab note: jot the number down without any unit.

Recorded results for 4 molecules are shown here.
| chemical_structure | selectivity ratio |
| --- | --- |
| Cc1cc(-c2cccc(F)c2)ccc1Oc1cc(N)nc(Nc2ccc(C#N)cc2)n1 | 187 |
| Cc1cc(-c2ccccc2)ccc1Oc1cc(N)nc(Nc2ccc(C#N)cc2)n1 | 1050 |
| Cc1cc(-c2cccc(C#N)c2)ccc1Oc1cc(N)nc(Nc2ccc(C#N)cc2)n1 | 4940 |
| COc1cc(Oc2cc(N)nc(Nc3ccc(C#N)cc3)n2)ccc1-c1ccc(C#N)cc1 | 5590 |

// next entry
// Cc1cc(-c2ccccc2F)cc(C)c1Oc1cc(N)nc(Nc2ccc(C#N)cc2)n1 : selectivity ratio value = 3060

---

Experiment: Cytotoxicity against human MT4 cells assessed as reduction in cell viability by MTT assay
Type: toxicity, cell-based
readout_label: CC50 (µM)
Give a bare numeral; the unit µM is implied.

| chemical_structure | CC50 / µM |
| --- | --- |
| Cc1cc(-c2ccc(F)cc2)ccc1Oc1cc(N)nc(Nc2ccc(C#N)cc2)n1 | 20.1 |

// next entry
// Cc1cc(-c2ccccc2)ccc1Oc1cc(N)nc(Nc2ccc(C#N)cc2)n1 : CC50 value = 20
